Origin of measurements: patent US20050164933A1

- Subject Of Test: T1, GST-MUPP1 PDZ domain 3 fusion protein (human), O75970
- T1 chain: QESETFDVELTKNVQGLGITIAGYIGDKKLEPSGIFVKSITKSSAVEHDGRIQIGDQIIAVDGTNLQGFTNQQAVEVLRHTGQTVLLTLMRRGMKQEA
- Assay Details: G3 assay titration, immobilised GST-PDZ
No end group written: not given here.
Measured Endpoint: EC50
Hi, when you answer, please include the unit after the number. Thanks!

// query EC50 value for entry YGRKKRRQRRRSTNSVRLML (not fully specified)
290 nM
